- Tested on: Rattus norvegicus
- assay_explanation: Alanine transaminase level was measured in rats after administration intravenously at a dose(bolus) of 20 umol/kg
- Assay type: functional, organism-based
- Set-up: unit not given here
measure_name: Level

* Cc1cc(C)cc(C(C)(C)CN(CC(=O)NC(CCCCN)B(O)O)C(=O)CCc2ccccc2)c1 (stereo not given) | 78
* CC(C)(CN(CC(=O)NC(CCC/N=C/N)B(O)O)C(=O)CCc1ccccc1)c1ccccc1 (stereo not given) | 70
* CC(C)(CN(CC(=O)NC(CCCCN)B(O)O)C(=O)CCc1ccccc1)c1ccccc1 (stereo not given) | 53
* NCCCCC(NC(=O)CN(CC1(c2ccccc2)CC1)C(=O)CCc1ccccc1)B(O)O (stereo not given) | 60
* N/C=N/CCCC(NC(=O)CN(CC1(c2ccccc2)CCCC1)C(=O)CCc1ccccc1)B(O)O (stereo not given) | 60
